# target-under-test: T1, human CXCR5 (human, UniProt P32302 1-372)
# T1 sequence: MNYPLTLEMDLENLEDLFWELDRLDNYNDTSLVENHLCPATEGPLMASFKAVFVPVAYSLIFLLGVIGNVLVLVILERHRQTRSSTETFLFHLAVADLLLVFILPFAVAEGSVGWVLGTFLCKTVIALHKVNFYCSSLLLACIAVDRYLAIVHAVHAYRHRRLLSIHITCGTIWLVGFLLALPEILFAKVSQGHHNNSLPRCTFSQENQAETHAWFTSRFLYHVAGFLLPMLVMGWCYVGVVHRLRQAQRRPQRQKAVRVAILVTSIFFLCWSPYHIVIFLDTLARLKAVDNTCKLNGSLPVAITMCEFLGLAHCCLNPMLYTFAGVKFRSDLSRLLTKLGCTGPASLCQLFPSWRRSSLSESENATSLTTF
# experimental-details: cell-based or functional assay
Reported values of Mean IC50 (nM) on L1.2/human CXCR5 cells (chemotaxis) for individual entries
Your answer is read as nM, so omit the unit and give the number.

- binder: "mAb 80A11 (antibody, V domains shown) VH: EVQLLESGGGLVQPGGSLRLSCAASGFTFSRYPMGWVRQAPGKGLEWVSSISPSGGMTRYADSVKGRFTISRDNSKNTLYLQMNSLRAEDTAVYYCARLKFTSGRTFDIWGQGTMVTVSS VL: DIQMTQSPATLSLSPGERATLSCRASQSVSSYLAWYQQKPGQAPRLLIYGASSRVPGVPDRFTGSGSETDFTLTITRLEPEDFAVYYCQLSSSSPSWTFGQGTRLEIK"
  display-unit: "nM"
  numeric-result: 1.85

Entry mAb 80B09 (antibody, V domains shown) VH: EVQLLESGGGLVQPGGSLRLSCAASGFTFSKYNMLWVRQAPGKGLEWVSVISPSGGRTSYADSVKGRFTISRDNSKNTLYLQMNSLRAEDTAVYYCARHTSITMFDYWGQGTLVTVSS VL: QSALTQPASVSGSPGQSITISCTGTSSDIGSYNYVSWYQQHPGRAPKVMIYDVTYRPSGVSNRFSGSKSGNTASLTISGLQAEDEADYYCGSYRKSSLYVFGTGTKVTVL ; Mean IC50 (nM) on L1.2/human CXCR5 cells (chemotaxis) = 251

Measured Mean IC50 (nM) on L1.2/human CXCR5 cells (chemotaxis), mAb 80D11 (antibody, V domains shown) VH: EVQLLESGGGLVQPGGSLRLSCAASGFTFSHYWMQWVRQAPGKGLEWVSSISSSGGKTRYADSVKGRFTISRDNSKNTLYLQMNSLRAEDTAVYYCATAGYSSGWGQGTLVTVSS VL: QSALTQPASVSGSPGQSITISCTGTSSDVGGYNYLSWYQQHPGKAPKLMIYGVSNRPSGVSTRFSGSKSGNTASLTISGLQAEDEADYYCSSYTSTGTRVFGGGTRLTVL : 37
